- EXPERIMENTAL_SYSTEM: Fes (UniProt P07332)
- Sequence (P07332 whole entry, looked up): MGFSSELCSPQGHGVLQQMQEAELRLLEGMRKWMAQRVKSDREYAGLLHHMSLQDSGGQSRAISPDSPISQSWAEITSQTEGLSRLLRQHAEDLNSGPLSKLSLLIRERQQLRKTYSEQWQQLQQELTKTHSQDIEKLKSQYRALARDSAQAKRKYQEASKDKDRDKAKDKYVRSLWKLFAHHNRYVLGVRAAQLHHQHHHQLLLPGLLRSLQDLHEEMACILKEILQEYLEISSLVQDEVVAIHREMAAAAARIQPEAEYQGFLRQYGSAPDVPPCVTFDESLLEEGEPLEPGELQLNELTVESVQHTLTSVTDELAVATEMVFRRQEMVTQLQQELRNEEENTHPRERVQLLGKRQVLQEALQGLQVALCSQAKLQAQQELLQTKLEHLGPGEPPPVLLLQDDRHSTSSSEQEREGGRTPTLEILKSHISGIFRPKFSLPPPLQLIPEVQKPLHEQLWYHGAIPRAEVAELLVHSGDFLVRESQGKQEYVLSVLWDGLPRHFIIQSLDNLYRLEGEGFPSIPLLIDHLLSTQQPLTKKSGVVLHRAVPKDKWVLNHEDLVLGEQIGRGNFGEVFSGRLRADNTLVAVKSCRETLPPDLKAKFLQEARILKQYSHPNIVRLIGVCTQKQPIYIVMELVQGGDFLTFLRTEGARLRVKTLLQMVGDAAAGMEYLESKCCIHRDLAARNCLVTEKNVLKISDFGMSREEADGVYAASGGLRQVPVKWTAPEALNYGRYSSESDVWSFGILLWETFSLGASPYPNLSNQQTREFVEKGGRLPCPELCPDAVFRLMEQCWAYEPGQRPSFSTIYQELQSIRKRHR
- ASSAY_NOTES: phosphorylation enrichment, bacterial display (enrichment ratio); higher = better substrate or ligand; peptides without Tyr show the background;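 further: 11-residue human phosphosite peptides and single-mutation variants displayed on the E. coli surface, counted by deep sequencing, each peptide's frequency after selection divided by its frequency in the unselected input library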;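 further: frequency after pTyr selection over input frequency; kinase dosed for 20-30% of maximal phosphorylation in three min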
RECORDED_ENDPOINT: phosphorylation enrichment

# example entries with known answers
- PRIMARY_SEQUENCE: "KEINDYVEKGT [SERPINA1_Y184_Q180E]"
  EXPERIMENTAL_SYSTEM: "Fes (UniProt P07332)"
  phosphorylation enrichment: 0.954
- PRIMARY_SEQUENCE: "LEQQKYTVTVD [IKBKB_Y199]"
  EXPERIMENTAL_SYSTEM: "Fes (UniProt P07332)"
  phosphorylation enrichment: 1.98
- PRIMARY_SEQUENCE: "ATHRSYDSDNP [MMUT_Y146_G145S]"
  EXPERIMENTAL_SYSTEM: "Fes (UniProt P07332)"
  phosphorylation enrichment: 0.777
- PRIMARY_SEQUENCE: "PLLLSYFLIKW [NUP160_Y773_YF]"
  EXPERIMENTAL_SYSTEM: "Fes (UniProt P07332)"
  phosphorylation enrichment: 1.8
- PRIMARY_SEQUENCE: "LIFTNYEVGKD [GSTP1_Y112_A114V_YF]"
  EXPERIMENTAL_SYSTEM: "Fes (UniProt P07332)"
  phosphorylation enrichment: 2.21

Item: DSFATYFRRVL [H2BW1_Y84] Test system: Fes (UniProt P07332) Read-out: phosphorylation enrichment Value: ?
1.2

Would you mind doing GIFSGYDDAWD [POLR1C_Y36_N32I_YF] as well?
1.14

Would you mind doing CVAARYMDVKG [WFIKKN2_Y93] as well?
0.887
